These data points were gathered from PubChem BioAssay (NCI).

test system: CCRF-CEM leukemia; test: NCI-60 one-dose screen, 48 h; details: 10 µM unless noted
This is part of a sample that, as a whole, favours compounds with a hit. Of some 83,000 tested, about 20% had one in any assay. The source made the active and inactive calls. Rule for the calls: active = growth percent below 10; inactive = the rest.
Mark one answer only. Choices: 1 (yes) for active, 0 (no) for inactive

// return assay outcome for `C=C1C(=O)O[C@H]2[C@H]1CC/C(CNC(=O)c1cc3cc(OC)ccc3[nH]1)=C\CC[C@@]1(C)O[C@@H]21` 1 (yes)

Try `CCN1CCN(c2cc(C)nc(N(CCCNc3ccnc4cc(Cl)ccc34)Cc3cccs3)n2)CC1` next. 1 (yes)

Try `CCN1CCN(Cc2ccc(NC(=O)Nc3nc(-c4cc(OC)c(OC)c(OC)c4)cs3)cc2C(F)(F)F)CC1` next. 1 (yes)

Try `O=C(Nc1ccc(N=Nc2ccccc2)cc1)c1cccc2ccccc12` next. 0 (no)

Try `COc1cc(Nc2c(C#N)cnc3cc(OCCCN4CCN(C)CC4)c(OC)cc23)c(Cl)cc1Cl` next. 0 (no)

Try `O=C(COc1cccc(/C=C2\Cc3ccc(Cl)cc3C2=O)c1)Nc1nccs1` next. 0 (no)

Try `C#Cc1cccc(Nc2ncnc3cc(OC)c(OCCCCCCC(=O)NO)cc23)c1` next. 1 (yes)

Try `CCc1nc2cc(/C=C/C(=O)NO)ccc2c(=O)n1CCc1ccc(OC)cc1` next. 0 (no)

Try `CCc1nc2cc(F)c(/C=C/C(=O)NO)cc2c(=O)n1CCc1ccccc1` next. 1 (yes)
